tested on: PTEC-TERT1 cells; assay: EGF assay, supernatant of PTEC-TERT1 cells; conditions: PTEC-TERT1, Day 6, 100 μM (Table 4)
We label by threshold. Values of EGF strictly beneath 800 % saline are 1. Values of 800 % saline and up are -1.

These solved cases illustrate the format of a correct answer.
ATTgcattgtttcCGT (ATTGCATTGTTTCCGT; chemistry not given here) [Compound 18-1]	1
ACTgctttccactCTG (ACTGCTTTCCACTCTG; chemistry not given here) [Compound 8-1]	-1
CGTttgtgctcgATA (CGTTTGTGCTCGATA; chemistry not given here) [Compound 17-1]	1

# input Hi there! Is EGF for GCCtcccagttccTTT (GCCTCCCAGTTCCTTT; chemistry not given here) [Compound 9-1] below 800 % saline, do you know?
# output -1

# input Hi there! Is EGF for CGTttgtgctcgaTAA (CGTTTGTGCTCGATAA; chemistry not given here) [Compound 16-1] below 800 % saline, do you know?
# output 1

# input Hi there! Is EGF for CAAatgctgaaacTAT (CAAATGCTGAAACTAT; chemistry not given here) [Compound 7-1] below 800 % saline, do you know?
# output 1
